Answer each item with its documented IC50.
System: S. Typhi PhoP-promoter GFP reporter, fluorescence, 4 h
Test: PhoP regulon inhibitor project modified counter assay, GFP fluorescence readout, dose response (AID 1985)

Please give measured IC50 of the following entry: CCCCCCCCC[n+]1cccc2c3ccccc3ccc21
26.8 µM

Please give measured IC50 of the following entry: CC[C@H]1OC(=O)[C@H](C)[C@@H](O[C@H]2C[C@@](C)(OC)[C@@H](O)[C@H](C)O2)[C@H](C)[C@@H](O[C@@H]2O[C@H](C)C[C@H](N(C)C)[C@H]2O)[C@](C)(O)C[C@@H](C)CN(C)[C@H](C)[C@@H](O)[C@]1(C)O
2.33 µM

Please give measured IC50 of the following entry: Cc1cccc(Nc2cc(C)c3c(O)cccc3n2)c1C
49.6 µM

Please give measured IC50 of the following entry: C#CCOCCOCCOCCNc1nc(N2CCN(C(=O)CCCCCCCCCCNC(=O)[C@H]([C@@H](C)CC)n3cc(CCCCN=C(N)N)nn3)CC2)nc(N2CCN(C(=O)CCCCCCCCCCNC(=O)[C@H](CCCCN)n3cc(C)nn3)CC2)n1
69.3 µM

Please give measured IC50 of the following entry: O=C(CN1C2=NCCCN2c2ccccc21)c1ccc(Br)s1
135 µM

Please give measured IC50 of the following entry: CCCNC1=C(C)C(=O)C2=C(C1=O)C(COC(N)=O)[C@]1(OC)C3NC3CN21 (stereo partly drawn)
51.8 µM

Please give measured IC50 of the following entry: Cc1ccc(Nc2cc(C)c3c(O)cccc3n2)cc1C
30.7 µM

Please give measured IC50 of the following entry: O=C(Nc1cccc(Cl)c1)Nc1nccs1
55.3 µM

Please give measured IC50 of the following entry: CCCCOCCCNc1ncnc2c1[nH]c1ccccc12
72.8 µM

Please give measured IC50 of the following entry: COc1ccc(Nc2cc(C)c3c(O)cccc3n2)cc1
34.4 µM

Please give measured IC50 of the following entry: NC(=O)c1ccc(N=C2C(=O)Nc3ccc([N+](=O)[O-])cc32)cc1
31.8 µM

Please give measured IC50 of the following entry: Cc1cc(C(C)(C)CC(C)(C)C)ccc1OCCOCC[N+](C)(C)Cc1ccccc1
31.6 µM

Please give measured IC50 of the following entry: O=C1CSC(=S)N1c1cccc(O)c1
72.8 µM

Please give measured IC50 of the following entry: O=C(O)c1sccc1Oc1ccc(F)cc1[N+](=O)[O-]
12.6 µM

Please give measured IC50 of the following entry: O=C(CSc1nnc(-c2cccnc2)n1Cc1ccco1)c1ccc2ccccc2c1
< 0.23 µM

Please give measured IC50 of the following entry: CN1CCc2c(sc(NC(=O)c3ccc([N+](=O)[O-])o3)c2C(N)=O)C1
11 µM

Please give measured IC50 of the following entry: CC(C)(C)/C(O)=C/c1nc2cc(Cl)ccc2oc1=O
11.2 µM

Please give measured IC50 of the following entry: Cc1cc2nc(C3CCN(CC4COc5ccccc5O4)CC3)[nH]c2cc1C (stereo not drawn)
15.2 µM

###

Test system: S. Typhi PhoP-promoter GFP reporter, fluorescence, 4 h
Assay: PhoP regulon inhibitor project modified counter assay, GFP fluorescence readout, dose response (AID 1985)
TEST READOUT: IC50

Please indicate recorded IC50 of CN1CCC(OC(=O)c2cccc(Br)c2)CC1 measured with S. Typhi PhoP-promoter GFP reporter, fluorescence, 4 h.
120 µM

Please indicate recorded IC50 of CCOc1ccc(OCCSc2nc3ccccc3[nH]2)cc1 measured with S. Typhi PhoP-promoter GFP reporter, fluorescence, 4 h.
106 µM

Please indicate recorded IC50 of CCC(C)N1CCC2(CC1)N=c1c(c3c4c5c(C)c(O)c3c(O)c1=NC(=O)C(C)=CC=C[C@H](C)[C@H](O)[C@@H](C)[C@@H](O)[C@@H](C)[C@H](OC(C)=O)[C@H](C)[C@@H](OC)C=CO[C@@](C)(O5)C4=O)N2 (stereo partly specified) measured with S. Typhi PhoP-promoter GFP reporter, fluorescence, 4 h.
9.09 µM

Please indicate recorded IC50 of CCOC(=O)N/N=C(/C)c1ccc([N+](=O)[O-])o1 measured with S. Typhi PhoP-promoter GFP reporter, fluorescence, 4 h.
45.8 µM

Please indicate recorded IC50 of COc1ccc(C(=O)CCN2CCc3cc(OC)c(OC)cc3C2)cc1 measured with S. Typhi PhoP-promoter GFP reporter, fluorescence, 4 h.
122 µM

Please indicate recorded IC50 of CNC[C@H](CC1CCCCC1)NC[C@H](Cc1ccccc1)NCCC12CC3CC(CC(C3)C1)C2 measured with S. Typhi PhoP-promoter GFP reporter, fluorescence, 4 h.
14.8 µM

Please indicate recorded IC50 of OCCN1CCN(C2CCC(c3ccc(F)cc3)c3ccc(F)cc32)CC1 (stereo unspecified) measured with S. Typhi PhoP-promoter GFP reporter, fluorescence, 4 h.
67.7 µM

Please indicate recorded IC50 of O=C(Nc1ccccc1)c1ccc2nsnc2c1 measured with S. Typhi PhoP-promoter GFP reporter, fluorescence, 4 h.
< 0.23 µM

Please indicate recorded IC50 of Cc1ccc(-c2cc(-c3ccc(C)cc3)[n+](-c3ccccc3)c(-c3ccc(C)cc3)c2)cc1 measured with S. Typhi PhoP-promoter GFP reporter, fluorescence, 4 h.
34.5 µM

Please indicate recorded IC50 of Fc1ccc([C@@H]2CCNC[C@H]2COc2ccc3c(c2)OCO3)cc1 measured with S. Typhi PhoP-promoter GFP reporter, fluorescence, 4 h.
77.5 µM

Please indicate recorded IC50 of Clc1ccc(OCCCNCc2ccccc2)c(Br)c1 measured with S. Typhi PhoP-promoter GFP reporter, fluorescence, 4 h.
43.8 µM

Please indicate recorded IC50 of Nc1ncncc1-c1ccc([N+](=O)[O-])cc1 measured with S. Typhi PhoP-promoter GFP reporter, fluorescence, 4 h.
67.4 µM

Please indicate recorded IC50 of CCOC(=O)N1CCN(Cc2cc(Cl)c3cccnc3c2O)CC1 measured with S. Typhi PhoP-promoter GFP reporter, fluorescence, 4 h.
37.8 µM

Please indicate recorded IC50 of O=c1cc(-c2ccccc2)cc(-c2ccccc2)n1O measured with S. Typhi PhoP-promoter GFP reporter, fluorescence, 4 h.
51.7 µM

Please indicate recorded IC50 of CCn1cc(C(=O)NCCCN(C)C)c(=O)c2cc(F)c(N3CCN(C)CC3)cc21 measured with S. Typhi PhoP-promoter GFP reporter, fluorescence, 4 h.
35.5 µM

Please indicate recorded IC50 of Cc1ccc(S(=O)(=O)NNc2ccccc2)c(C)c1 measured with S. Typhi PhoP-promoter GFP reporter, fluorescence, 4 h.
117 µM

Please indicate recorded IC50 of NC(N)=N/N=C/c1ccc(OCc2ccccc2Cl)cc1 measured with S. Typhi PhoP-promoter GFP reporter, fluorescence, 4 h.
33.4 µM

Please indicate recorded IC50 of O=c1[nH]c(-c2ccccn2)nc(C(F)(F)F)c1Br measured with S. Typhi PhoP-promoter GFP reporter, fluorescence, 4 h.
66.7 µM

Please indicate recorded IC50 of O=C(/C=C(\O)c1ccccc1)C(=O)NNC(=O)c1ccccc1 measured with S. Typhi PhoP-promoter GFP reporter, fluorescence, 4 h.
19.7 µM

Please indicate recorded IC50 of O=C(N/N=C\c1c[nH]c2ccccc12)c1ccc(O)cc1 measured with S. Typhi PhoP-promoter GFP reporter, fluorescence, 4 h.
134 µM

Please indicate recorded IC50 of ON=C1/C(=N\O)CC2(C/C1=N/O)OCCO2 measured with S. Typhi PhoP-promoter GFP reporter, fluorescence, 4 h.
112 µM

Please indicate recorded IC50 of Fc1ccc(Nc2nc(NCc3ccco3)c3ccccc3n2)cc1 measured with S. Typhi PhoP-promoter GFP reporter, fluorescence, 4 h.
15.1 µM

Please indicate recorded IC50 of C/C(=C\C(=O)OCCCCCCCCC(=O)O)C[C@@H]1OC[C@H](C[C@@H]2O[C@H]2[C@@H](C)[C@H](C)O)[C@@H](O)[C@H]1O measured with S. Typhi PhoP-promoter GFP reporter, fluorescence, 4 h.
17.5 µM

Please indicate recorded IC50 of Nc1nc(Nc2ccccc2)nc2ccccc12 measured with S. Typhi PhoP-promoter GFP reporter, fluorescence, 4 h.
56.2 µM

Please indicate recorded IC50 of O=C(N/N=C\C=C\c1ccc([N+](=O)[O-])o1)c1cccs1 measured with S. Typhi PhoP-promoter GFP reporter, fluorescence, 4 h.
27.8 µM

Please indicate recorded IC50 of CC(=O)Oc1ccccc1C(=O)Nc1ncc([N+](=O)[O-])s1 measured with S. Typhi PhoP-promoter GFP reporter, fluorescence, 4 h.
149 µM

Please indicate recorded IC50 of COc1cc(Br)cc(C=Nc2cccc(C(F)(F)F)c2)c1O measured with S. Typhi PhoP-promoter GFP reporter, fluorescence, 4 h.
69.4 µM

Please indicate recorded IC50 of O=C(N/N=C\c1ccc(Cl)s1)c1cccs1 measured with S. Typhi PhoP-promoter GFP reporter, fluorescence, 4 h.
32.9 µM

Please indicate recorded IC50 of C1=C(CCNCc2ccccc2)CCCC1 measured with S. Typhi PhoP-promoter GFP reporter, fluorescence, 4 h.
8.38 µM

Please indicate recorded IC50 of CCCCCCCCCCCCCCCC[n+]1ccc(/C=N/O)cc1 measured with S. Typhi PhoP-promoter GFP reporter, fluorescence, 4 h.
34.2 µM

Please indicate recorded IC50 of CCN(CC)CCNc1nc(-c2ccc(OC)cc2)c(-c2ccc(OC)cc2)s1 measured with S. Typhi PhoP-promoter GFP reporter, fluorescence, 4 h.
< 0.23 µM

The values you see were collected from PubChem BioAssay AID1985.
